Below, each entry is listed alongside its reported pIC50.
Target: HLA-A11 (A*1101) (Homo sapiens, UniProt P04439, A114D/D185E/E176A/F33Y/L180Q/S129P/T187R)
Test: biochemical
Assay type: binding
No end group written: not given here.
Keep in mind that pIC50 stands for -log10 of concentration in molar terms.

>>> df
         macromolecule_sequence                           target_of_assay  recorded_measurement
0  GTTLEQQYNK [Peptide 78.0044]  HLA-A11 (A*1101) (Homo sapiens, UniProt P04439, A114D/D185E/E176A/F33Y/L180Q/S129P/T187R)                  7.16

Return the recorded pIC50 value; entry: SQWIRFRCSK [Peptide 88.0147] 6.89

Return the recorded pIC50 value; entry: QQQMFLGTVK [Peptide 88.0219] 7.89

Return the recorded pIC50 value; entry: TTLEKLTNK [Peptide 78.0283] 7.38

Return the recorded pIC50 value; entry: MLVRFKCAK [Peptide 1587.30] 6.73

Return the recorded pIC50 value; entry: AAEGVGAVSR [Peptide 9017.0188] 6.00

Return the recorded pIC50 value; entry: RTHSSHLKSKK [Peptide 1556.76] 8.01

Return the recorded pIC50 value; entry: HLYGYSWYK [Peptide 76.0153] 7.96

Return the recorded pIC50 value; entry: GVMCRHYKR [Peptide 88.0388] 7.10

====

Molecular target: DRB1*1101 (Homo sapiens, UniProt P01903+P01911, A100R/A169T/A87E/I96F/K41T/L162R/M171V/P40S/Q125H/Q178H/Q39Y/Q99D/R42S/S66Y/T262R/V115G/W38E)
Sequence (P01903 26-254 limits assumed, other chains not shown): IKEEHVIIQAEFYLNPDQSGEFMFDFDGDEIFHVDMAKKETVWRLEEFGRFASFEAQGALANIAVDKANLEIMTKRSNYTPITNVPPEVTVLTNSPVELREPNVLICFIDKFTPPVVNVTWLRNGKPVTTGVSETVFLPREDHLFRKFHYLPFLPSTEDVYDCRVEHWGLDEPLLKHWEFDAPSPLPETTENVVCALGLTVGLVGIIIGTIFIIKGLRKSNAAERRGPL
Test: biochemical
Conditions: Binding affinity DRB1 *1101
No end group written: not given here.
Reported Property: IC50 (nM)
Expressed in nM, but write only the number.

Examples from the recorded data:
>>> df
              macromolecule_sequence  reported_property  recorded_measurement
0  DCKWGVLILALLRYK [Peptide 89.0026]               IC50                   389
1  FQVIELQMALETLSK [Peptide 89.0182]               IC50                  2110
2  AKALQAIELQMMLET [Peptide 89.0171]               IC50                  2400

Moving on to another sequence below.
Return the recorded IC50 value; entry: RYRFQKYKTLFVDVT [Peptide 90.0019] 728

====

Biological target: HLA-A*0201 (HLA-A2.1) (Homo sapiens, UniProt P04439, D140Y/D185E/D98H/E176V/E277Q/G131W/G231S/I119V/I121R/I166T/I218V/L300P/L318F/N151K/N90K/P208A/P217A/Q86G/Q94H/R138H/R169H/T345S)
Assay: biochemical
Assay type: binding
Below, each entry is listed alongside its reported A2.1.

   macromolecule_sequence  reported_property  recorded_measurement
0               ALEAQQEAL               A2.1               <0.0003

Return the recorded A2.1 value; entry: `DPTGHSYVL` <0.0002

Return the recorded A2.1 value; entry: `CKPEEALEA` <0.0002

Return the recorded A2.1 value; entry: `GKASESLQL` <0.0002

Return the recorded A2.1 value; entry: `EMLESVIKN` <0.0002

Return the recorded A2.1 value; entry: `LVMIAMEGG` <0.0002
